Numbers sourced from PubChem BioAssay (NCI).

Please provide measured growth for the entries that follow.
# System: OVCAR-4 ovarian
# Assay Text: NCI-60 one-dose screen, 48 h (100 = growth as untreated, 0 = no growth, -100 = all killed)
# Condition Details: 10 µM unless noted
About 83,000 compounds went through this panel and 20% of them were active in at least one assay; those are over-represented in the sample as a whole.
Give bare numbers, in %.

# count of solved cases: 4
Compound | growth (%)
O=[N+]([O-])c1ccc2[nH]cc(-c3c4ccsc4cc4[nH]c5ccc([N+](=O)[O-])cc5c34)c2c1 | 35.1
CN(C)c1ccc2cc(-c3ccccc3F)c(N)nc2c1 | 32.8
CCCc1nc2ccccn2c1Nc1ccc(C(=O)NO)cc1 | 91.1
CCOC(=O)C1C(=O)C=C(c2cnccn2)CC1c1ccc(OC)c(OC)c1 (stereo not given) | 109

*Q* Can you share its growth? I mean this compound: `CCn1c(Sc2nnc(Nc3ccccc3)s2)nc2c1c(=O)n(C)c(=O)n2C`
*A* 96.5

----------
Please go through the items and note down their growth.
# System: A549/ATCC NSCLC
# Assay Text: NCI-60 one-dose screen, 48 h (100 = growth as untreated, 0 = no growth, -100 = all killed)
# Condition Details: 10 µM unless noted
Compounds without any hit were thinned out: in the full panel of roughly 83,000, 20% have a hit.
Give bare numbers, in %.

Molecule | Assayed Target | growth (%)
COc1ccc(-c2cc(-c3cc(OC)ccc3O)[nH]c(=O)c2C#N)cc1 | A549/ATCC NSCLC | 79.9

Would you mind giving growth for every molecule in the list below?
1. CCCCCOC(=O)c1ccc(NC(=O)CNCC(C)C)cc1
2. CC(/C=N/NC(=O)c1cc(-c2ccco2)[nH]n1)=C\c1ccccc1
3. CC(=[N-])N1CCC[C@@H](Nc2c3ccccc3nc3ccccc23)C1.[Cl][Pt].[NH-]CCC[NH-]
4. Oc1ccccc1-c1nc2ccccn2c1NCCN1CCOCC1
5. COC(=O)c1ccc2oc(NC(=O)c3ccc(N4CCOCC4)c([N+](=O)[O-])c3)nc2c1
6. CC(C)CCC[C@@H](C)[C@H]1CCC2C3=CCn4c(=O)ccc(=O)n4C3CC[C@@]21C (stereo not given in full)

*A*
88.4
105
7.75
91.9
98.7
-79.3

----------
# Test system: NCI-H23 lung
# Assay Text: NCI-60 one-dose screen, 48 h (100 = growth as untreated, 0 = no growth, -100 = all killed)
# Condition Details: 10 µM unless noted
Compounds without any hit were thinned out: in the full panel of roughly 83,000, 20% have a hit. Calls of active or inactive are those of the source. Rule for the calls: active = growth percent below 10; inactive = the rest.
Attribute Measured: growth

Molecule | growth
O=C1N(c2ccccc2)C(=S)N[C@]12[C@H](c1ccccc1)C1CCCN1[C@]21C(=O)NC2C=CC(Cl)=C[C@H]21 (stereo not given in full) | 96.2% (inactive)

Batch: growth for all items listed.
1. CN(CCCCCCCCNc1ccnc2ccccc12)Cc1ccc(-c2ccc(-c3ccc(C#N)cc3)s2)cc1
2. CCOC(=O)C1=C(C)NC(SCc2nnc(-c3ccc(Cl)cc3)o2)=NC1c1ccc(Cl)cc1Cl (stereo not given)
3. COc1cc2oc(-c3cccc(C(=O)Nc4ccc(C)cc4)c3)cc(=O)c2c(OC)c1OC

*A*
1: 21.1% (inactive); 2: 66% (inactive); 3: 44.6% (inactive)

// input: 8 molecules below; output: growth for each
1. COc1cc2c(cc1OC)-c1ccc3cc4c(cc3c1N(CCCn1ccnc1)C2)OCO4
2. COc1ccc(/C=C2\COc3ccc(O)cc3C2=O)c(OC)c1
3. Cl.Fc1c[c-]c(-c2ccccn2)c(F)c1.[Pt].c1ccc([PH+](C[PH+](c2ccccc2)c2ccccc2)c2ccccc2)cc1
4. C/C(Cc1ccc(Cl)cc1)=C(/c1ccc(Cl)cc1)c1ccc(OCCN(C)C)cc1
5. O=C1Nc2ccccc2SC1c1ccccc1Cl (stereo not given)
6. COc1ccc(/C=C2\COc3ccc(O)cc3C2=O)cc1OC
7. Clc1cnc(Nc2ccc(OCCN3CCCC3)cc2)nc1NCc1ccco1
8. Cc1cc(=O)c2cc3nc(-c4cccnc4)oc3c(Br)c2o1

*A*
["16.6% (inactive)", "83.4% (inactive)", "-78.1% (active)", "73.2% (inactive)", "102% (inactive)", "105% (inactive)", "10.2% (inactive)", "90% (inactive)"]

Below is a list of molecules. For each, state its recorded growth.
1. COc1cc(NC(=O)c2cc(O)c(CC=C(C)C)c(O)c2)cc2c1O[C@]1(C)CC[C@@H](O)C(C)(C)[C@H]1C2
2. CCCCCOC(=O)c1ccc(NC(=O)CNCC(C)C)cc1
3. N#Cc1c(NC(=O)c2cccc(C(F)(F)F)c2)sc2c1CCC(=O)C2
4. NS(=O)(=O)Oc1ccc(NC(=O)C23CC4CC(CC(C4)C2)C3)cc1Cl
5. O=C1/C(=C/c2ccc([N+](=O)[O-])cc2)COc2ccc(O)c(O)c21
6. O=C(O)c1ccccc1C(=O)Nc1ccc(Cl)cc1

*A*
1: 39% (inactive); 2: 99.4% (inactive); 3: 0.847% (active); 4: 101% (inactive); 5: 11.1% (inactive); 6: 99.3% (inactive)

Dear colleague, could you please provide growth for the molecules listed below?
1. COc1ccc(OC)c(Nc2nc3nonc3nc2Nc2cccc(Br)c2)c1
2. CN(C)c1ccc2cc(-c3ccc(Cl)c(Cl)c3)c(N)nc2c1
3. Cc1[nH]c(-c2nc3ccccc3[nH]2)c(C)c1C(=O)N1CCOCC1

*A*
["6.27% (active)", "15.4% (inactive)", "88.5% (inactive)"]

----------
Kindly supply the reported growth values for the records listed here.
# Tested on: NCI-H23 lung
# Assay Text: NCI-60 one-dose screen, 48 h (100 = growth as untreated, 0 = no growth, -100 = all killed)
# Condition Details: 10 µM unless noted
This is part of a sample that, as a whole, favours compounds with a hit. Of some 83,000 tested, about 20% had one in any assay.
Answers are plain numbers, in %.

Recorded growth, per entry:
Compound | growth (%)
Cn1c(NCCc2ccc(O)c(O)c2)nc2c1c(=O)n(Cc1ccc(Cl)cc1)c(=O)n2C | 79.1
CC(C)(C)N1CC(OC(N)=O)C1 | 91.2
CC(C)(O)c1cccc(F)c1 | 104
CN1C[C@@H](c2ccc(Cl)cc2)[C@]2(NC(=S)N(c3ccccc3)C2=O)[C@@]12C(=O)NC1C=CC(Br)=C[C@H]12 (stereo not given in full) | 76.1
Nc1ccc(S(=O)(=O)Nc2ccsc2-c2nc(-c3ccccc3)no2)cc1 | 83.5
Nc1ccc(CCCCc2ccccc2)c(Cl)c1 | 101

Dear colleague, could you send me growth for each of the items below? Thanks.
1. COc1cc2cc(Oc3ccc(NC(=O)Nc4cc(C(F)(F)F)cc(C(F)(F)F)c4)cc3)c(C)nc2cc1OCCN1CCCCC1
2. COc1ccc(O)c(-c2cc(-c3ccccc3)c(C#N)c(=O)[nH]2)c1
3. CC1(C)N=C(N)N=C(N)N1c1ccc(Cl)c(Cl)c1
4. CSc1nc2sc3cc(Cl)ccc3n2c(=N)c1C#N

*A*
1: -73.3; 2: 84.1; 3: 19.2; 4: 82.2

----------
# System: NCI-H522 lung
# Assay Text: NCI-60 one-dose screen, 48 h (100 = growth as untreated, 0 = no growth, -100 = all killed)
# Condition Details: 10 µM unless noted
The panel holds about 83,000 compounds, 20% with a hit somewhere; the sample as a whole holds those more often.
Kindly supply the reported growth values for the records listed here.
Numbers only, in %.

Examples with answers:
Compound | Attribute Measured | Value Observed
CCNCCNc1cc(C2CCCC2)c(C#N)c2nc3ccccc3n12 | growth | 6.72
COC1=CC(c2ccc[nH]2)=N/C1=C\c1[nH]c(C)c(C(=O)OCCn2cc(CCC[C@@H]3Cc4cc(O)ccc4C4CC[C@]5(C)[C@@H](O)CC[C@H]5C43)nn2)c1C (some centres undefined) | growth | 92.1

Each of the following entries comes with a recorded value; kindly state growth for each.
1. O=S(=O)(Cc1ccccc1)c1nc2ccccc2s1
2. COc1ccc(-c2cn(-c3cccc(C(=O)/C=C/c4cc(OC)c(OC)c(OC)c4)c3)c(=O)[nH]2)cc1

*A*
1: 13.2; 2: -38.7

----------
# Tested on: SF-539 CNS
# Assay Text: NCI-60 one-dose screen, 48 h
# Condition Details: 10 µM unless noted
About 83,000 compounds went through this panel and 20% of them were active in at least one assay; those are over-represented in the sample as a whole. Calls of active or inactive are those of the source. The calls were made as follows: active = growth percent below 10; inactive = the rest.
I would appreciate it if you answered using one of these outcomes: TRUE for active, FALSE for inactive

Example cases with answers are listed next.
Molecule | Cat
Clc1ccc(-c2cn(-c3ccccc3)c(-c3ccccc3)n2)cc1 | FALSE
c1ccc2c(c1)ncn2-c1nc2ccccc2n2c1nc1ccccc12 | FALSE
CC(=O)c1ccc2c(c1)CCN2 | FALSE

*Q* Identify the outcome logged in this assay for the molecule shown: `CCN(CC)S(=O)(=O)c1ccc(O)c(NC(=O)c2[nH]c(C)c(C(C)=O)c2CCc2ccc(Cl)cc2)c1`
*A* FALSE

*Q* Another molecule: `Cc1cc(=O)c2cc3nc(-c4cccnc4)oc3c(Br)c2o1`
*A* FALSE

*Q* Next molecule: `COc1cc2c(c(OC)c1OC)C(=O)/C(=C/c1cc(C)c(O)c(C)c1)S2`
*A* TRUE
